assay-remarks: Oral bioavailability in Beagle dog at 0.5 mg/kg measured for 24 hrs by LC/MS/MS analysis
Type: ADME, organism-based, Canis lupus familiaris
condition-notes: in vivo
measure: bioavailability (%)
Please give a number only; it is taken to be in %.

Look at this compound and give its reported bioavailability. Cc1c(-c2cc3cc(NC(=O)O[C@H]4COC[C@@H]4C)ncc3c(N)c2F)cnc2c1NCCO2
46

====

assay-remarks: Apparent permeability of the compound across apical to basolateral side in dog MDCK1 cells at 10 uM by LC-MS/MS analysis
Assay type: ADME, cell-based, Canis lupus familiaris
condition-notes: MDCK
Readings of Papp A→B at 10 µM for the listed compounds
Kindly format the answer as number then unit.

Field: example entries. Status: answers known.
Cc1c(N)cncc1-c1cc2cc(Nc3cc4n(n3)CC(=O)N(C)CC4)ncc2c(N)c1F; 0.4 ×10⁻⁶ cm/s
Cc1c(-c2cc3cc(NC(=O)O[C@H]4COC[C@@H]4C)ncc3c(N)c2F)cnc2c1NCCO2; 15 ×10⁻⁶ cm/s
Cc1c(-c2cc3cc(NC(=O)OC4CCOCC4)ncc3c(N)c2F)cnc2c1NCCO2; 18 ×10⁻⁶ cm/s

# context switch: different compound, same Papp A→B at 10 µM
Reported Papp A→B at 10 µM for Cc1c(N)cncc1-c1cc2cc(NC(=O)OC3CCOCC3)ncc2c(N)c1F : what is it?
15 ×10⁻⁶ cm/s
